TARGET_DESC: human muscarinic M1 receptor (Homo sapiens, UniProt P11229)
Sequence (P11229 whole entry): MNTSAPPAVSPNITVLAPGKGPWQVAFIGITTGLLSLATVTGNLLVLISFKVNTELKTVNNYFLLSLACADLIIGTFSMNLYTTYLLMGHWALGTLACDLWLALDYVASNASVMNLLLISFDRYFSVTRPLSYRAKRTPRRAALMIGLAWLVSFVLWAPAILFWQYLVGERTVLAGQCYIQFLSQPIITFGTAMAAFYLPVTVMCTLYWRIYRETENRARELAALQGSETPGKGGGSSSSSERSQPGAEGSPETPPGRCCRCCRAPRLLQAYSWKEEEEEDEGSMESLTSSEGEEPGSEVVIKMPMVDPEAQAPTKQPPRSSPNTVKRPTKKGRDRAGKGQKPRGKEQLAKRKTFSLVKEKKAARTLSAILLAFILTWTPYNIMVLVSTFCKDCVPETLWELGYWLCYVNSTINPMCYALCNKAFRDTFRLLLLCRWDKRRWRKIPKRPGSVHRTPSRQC
ASSAY_OVERVIEW: Alphascreen Surefire phospho-ERK1/2 functional assay, M1
Assay type: cell-based
COND: CHO, read-out: % Emax cf. ACh, M1, CHO cells stably expressing human M1; relative to ACh
RESULT_TYPE: Emax (%)
Your answer is read as %, so omit the unit and give the number.

CCOC(=O)N1CCC2(CC(N3CCC(n4ccc(C)n4)CC3)C2)C1 (single isomer, unassigned) [1-44 Isomer 2] = 126
CCOC(=O)N1CCC2(CC(N3CCC(N4C(=O)CC[C@@H]4C)CC3)C2)C1 (single isomer, unassigned) [2-115 Isomer 2] = 68
CCOC(=O)N1CCC2(CC(N3CCC([C@@H]4CCCN4C(=O)N4CCOCC4)CC3)C2)C1 (single isomer, unassigned) [2-28 Isomer 2] = 7
[2H]C([2H])([2H])C([2H])([2H])OC(=O)N1CCC2(CC(N3CCC(c4ccnn4C)CC3)C2)C1 (single isomer, unassigned) [1-73 Isomer 2] = 11

**Query** Tell us which Emax value is on record for [2H]C([2H])([2H])C([2H])([2H])OC(=O)N1CCC2(CC(N3CCC(n4cccn4)CC3)C2)C1 (single isomer, unassigned) [1-70 Isomer 2]
**Result** 92

**Query** Return value of Emax for input CCOC(=O)N1CCC2(CC(N3CCC([C@@H]4CCCN4C(=O)CCNC(=O)OCc4ccccc4)CC3)C2)C1 (single isomer, unassigned) [2-65 Isomer 2] , no commentary.
**Result** 60

**Query** For the compound CCOC(=O)N1CCC2(CC(N3CCC(C4CCCN4C(=O)OCC)CC3)C2)C1 (single isomer, unassigned) [2-14 Isomer 2] , give its reported Emax.
**Result** 43

**Query** For the compound COC(=O)N1CCC2(CC(N3CCC(c4ncc(C)n4C)CC3)C2)C1 (single isomer, unassigned) [1-9 Isomer 2] , report Emax.
**Result** 57

**Query** Give reported Emax value for CCOC(=O)N1CCC2(CC(N3CCC([C@@H]4CCCN4C(=O)OC)CC3)C2)C1 (single isomer, unassigned) [2-12 Isomer 2]
**Result** 9

**Query** Complete the entry with Emax for CCOC(=O)N1CCC2(CC(N3CCC(N4CC(F)(F)C[C@@H]4C(=O)NC)CC3)C2)C1 (single isomer, unassigned) [2-88 Isomer 2]
**Result** 25

**Query** // fetch Emax given entry CCOC(=O)N1CCC2(CC(N3CCC(N4C(=O)CCC4=O)CC3)C2)C1 (single isomer, unassigned) [2-112 Isomer 2]
**Result** 7

These data points were gathered from patent US9926297B2.
